Test system: NCI-H23
Assay: NCI tumour cell line growth inhibition, 48 h
Active and inactive are the calls of the source. Rule as the data show it: active = GI50 up to about 1.1 µM and inactive = higher.
Attribute measured: GI50

Observe how each entry below is paired with its result.
Compound	Result value
COC(=O)N/N=C(/CC1(O)C(=O)Nc2ccc([N+](=O)[O-])cc21)c1ccccc1 (stereo not given)	21.3 µM (inactive)
N#C/C(N)=C(C#N)/N=C/NCc1ccccc1	> 100 µM (inactive)
COc1ccc(/C(=N/NC(N)=O)C2(O)C(=O)Nc3ccc([N+](=O)[O-])cc32)cc1 (stereo not given)	17 µM (inactive)
Cn1cnc([N+](=O)[O-])c1Sc1nnc(-c2cccnc2)n1C	23.1 µM (inactive)

Now look at this entry.
IN: Provide value of GI50 for this record tested with NCI-H23: CC(C)=CCC[C@](C)(O[C@@H]1O[C@H](CO)[C@@H](O)[C@H](O)[C@H]1O)[C@H]1CC[C@]2(C)[C@@H]1[C@H](O)C[C@@H]1[C@@]3(C)CC[C@H](O)C(C)(C)[C@@H]3[C@@H](O[C@@H]3O[C@H](CO)[C@@H](O)[C@H](O)[C@H]3O)C[C@]12C [GINSENOSIDE RG1]
OUT: > 100 µM (inactive)

* * *

System: ACHN
Assay: NCI tumour cell line growth inhibition, 48 h
Activity calls are given as the source filed them. No stated cut-off is given here; in the data, active = GI50 up to about 1.1 µM and inactive = higher.
Attribute measured: GI50

> print(dat)
                                   molecule  attribute.measured          result.value
1  CCOC(=O)c1cc(/C=C/C(C)=C/C(=O)OC)n(C)c1C                GI50    45.2 µM (inactive)
2  COC(=O)CC(CC(=O)C(=O)OC)C(=O)OC (stereo unspecified)                GI50   > 100 µM (inactive)
3  CC(C)N(C(=O)C12C3C4C1C1C2C3C41C(O)C(C)(C)C)C(C)C (stereo unspecified)                GI50    > 50 µM (inactive)
4  N#CCCN(CCCN(CCCN(C(=O)Nc1ccccc1)c1ccccc1)C(=O)Nc1ccccc1)C(=O)Nc1ccccc1                GI50  > 8.75 µM (inactive)
5      CSC1=N/C(=C\c2ccco2)C(=O)N1CN1CCCCC1                GI50    69.5 µM (inactive)

IN: Sample O=C(c1ccc(NCN2C(=O)CCC2=O)cc1)c1ccc(NCN2C(=O)CCC2=O)cc1 — what was its GI50?
OUT: > 100 µM (inactive)

IN: Dear colleague, I am looking for the recorded GI50 of the following molecule: COc1ccccc1C1C(Cl)C(=O)N1n1cnc2ccccc2c1=O (stereo unspecified)
OUT: > 100 µM (inactive)

IN: I'd like to know its GI50. The molecule in question is O=[N+]([O-])c1cccc2nc3ccccc3c(NCCNCCO)c12
OUT: 0.00875 µM (active)

IN: Dear colleague, I am looking for the recorded GI50 of the following molecule: COC(=O)C1C2C=CC(C2)N1S(=O)(=O)c1ccccc1 (stereo unspecified)
OUT: > 100 µM (inactive)

IN: Which measured GI50 value corresponds to COC(=O)Nc1nc2cc(S(=O)(=O)N3CCOCC3)ccc2[nH]1 ?
OUT: > 100 µM (inactive)

IN: Requested read-out: GI50. Entry: CC(C)NCCNC(=O)c1ccccc1Nc1c(Cl)cccc1Cl
OUT: 17.4 µM (inactive)
